Reference source: the supplement of paper PMC10567573

B1: CCDC70 (parent)
chain: FSFKVSRWMGLACFRSLAASSPSI

# Variants of: B1
# test details: protein stability index of a GFP-peptide fusion (GPS, HEK-293T) (PSI 1-6); higher = more stable;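 further: lentivirally expressed fusions sorted by FACS into six bins by GFP to DsRed ratio, PSI derived from sequencing read proportions per bin multiplied by bin number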
# test parameters: c terminus: a fixed tail appended
parameter measured: protein stability index

> print(dat)
     var       parameter.measured  measured.result
 1  A12S  protein stability index             2.02
 2  F14S  protein stability index             1.61
 3  G10Y  protein stability index             4.12
 4  C13R  protein stability index              3.4
 5  P22R  protein stability index             2.46
 6  S21A  protein stability index             1.99
 7   V5T  protein stability index             2.77
 8   R7C  protein stability index             3.09
 9   S6T  protein stability index             2.43
10  P22C  protein stability index             2.36
11   W8V  protein stability index             3.21
12  A19S  protein stability index             3.28
13  A18W  protein stability index             1.96
14  G10F  protein stability index             1.86
15  I24Y  protein stability index             3.49
16  S16A  protein stability index             3.04
17  S16H  protein stability index             3.13
18   K4L  protein stability index             3.31
19  S21G  protein stability index             2.62
20  L11Y  protein stability index             3.04
21   F3W  protein stability index             1.82
22  P22H  protein stability index             1.85
